# system: UniProt P0DMS8
# Sequence (P0DMS8 whole entry): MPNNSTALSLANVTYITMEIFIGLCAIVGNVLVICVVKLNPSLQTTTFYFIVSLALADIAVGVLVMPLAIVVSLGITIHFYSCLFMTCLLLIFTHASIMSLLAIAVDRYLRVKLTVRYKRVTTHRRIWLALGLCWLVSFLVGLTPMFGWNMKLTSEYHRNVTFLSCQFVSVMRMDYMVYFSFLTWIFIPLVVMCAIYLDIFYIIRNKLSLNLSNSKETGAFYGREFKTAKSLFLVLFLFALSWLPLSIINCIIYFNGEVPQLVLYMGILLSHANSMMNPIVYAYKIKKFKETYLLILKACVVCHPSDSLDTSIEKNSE
# testMethodNotes: Displacement of [3H]PSB-11 from human recombinant adenosine A3 receptor expressed in CHO cells
# Format: cell-based
assayMetric: Ki

Ki on UniProt P0DMS8 for "CCn1c(=O)c2c(nc(/C=C/c3ccc(OC)c(OC)c3)n2C)n(CC)c1=O" is > 3 µM
